Exercise: state measured inhibition at 0.1 µM for each of the compounds provided.
target: steroid sulfatase (STS) (Homo sapiens); test: STS inhibition in intact MCF-7 breast cancer cells; assay type: cell-based; set-up: endogenous in cells; host or cells: MCF-7 breast cancer cells; conditions: MCF7, read-out: % Inhibition of STS Activity in Intact MCF-7 Breast Cancer Cells at 0.1 μM
Sequence (P08842 22-583): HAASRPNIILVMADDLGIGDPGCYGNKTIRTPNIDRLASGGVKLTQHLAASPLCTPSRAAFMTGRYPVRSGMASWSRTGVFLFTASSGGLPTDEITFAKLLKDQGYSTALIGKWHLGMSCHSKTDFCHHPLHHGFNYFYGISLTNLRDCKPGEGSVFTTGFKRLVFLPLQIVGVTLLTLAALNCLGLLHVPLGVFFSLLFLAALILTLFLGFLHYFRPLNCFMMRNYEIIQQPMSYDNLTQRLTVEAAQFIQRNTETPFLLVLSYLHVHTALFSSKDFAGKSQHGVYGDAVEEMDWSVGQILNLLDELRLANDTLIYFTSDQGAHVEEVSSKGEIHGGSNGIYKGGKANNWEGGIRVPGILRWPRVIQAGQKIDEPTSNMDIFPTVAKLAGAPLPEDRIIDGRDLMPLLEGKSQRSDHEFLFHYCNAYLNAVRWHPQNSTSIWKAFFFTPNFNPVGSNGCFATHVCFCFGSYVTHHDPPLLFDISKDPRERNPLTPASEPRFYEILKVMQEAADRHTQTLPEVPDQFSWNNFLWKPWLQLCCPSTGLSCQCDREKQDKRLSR
Give just the numeric value; % need not be written.

q: Fill: inhibition at 0.1 µM (steroid sulfatase (STS) (Homo sapiens)) for this compound NS(=O)(=O)Oc1ccc2c(CCc3ccccc3)cc(=O)oc2c1 [compound 24, 4-(2-Phenylethyl)coumarin-7-O-sulfamate]
a: 84

q: Consider the compound CCCCCCCCCc1cc(=O)oc2cc(OS(N)(=O)=O)ccc12 [compound 14, 4-Nonylcoumarin-7-O-sulfamate] tested on steroid sulfatase (STS) (Homo sapiens); state its inhibition at 0.1 µM.
a: 96

q: Specify the recorded inhibition at 0.1 µM for CCCCCCCCCc1c(C)c2ccc(OS(N)(=O)=O)cc2oc1=O [compound 32, 4-Methyl-3-nonylcoumarin-7-O-sulfamate] , system: steroid sulfatase (STS) (Homo sapiens).
a: 96

q: # assay system steroid sulfatase (STS) (Homo sapiens): give inhibition at 0.1 µM of CCCCCCc1cc(=O)oc2cc(OS(N)(=O)=O)ccc12 [compound 11, 4-Hexylcoumarin-7-O-sulfamate]
a: 87

q: Using steroid sulfatase (STS) (Homo sapiens) as the test system, report measured inhibition at 0.1 µM of Cc1c(Cl)c(=O)oc2cc(OS(N)(=O)=O)ccc12 [compound 39, 3-Chloro-4-methylcoumarin-7-O-sulfamate] .
a: 29

q: Recall the reported inhibition at 0.1 µM of Cc1c(-c2ccccc2)c(=O)oc2cc(OS(N)(=O)=O)ccc12 [compound 40, 4-Methyl-3-phenylcoumarin-7-O-sulfamate] on steroid sulfatase (STS) (Homo sapiens) and write it down.
a: 75

q: Print steroid sulfatase (STS) (Homo sapiens) inhibition at 0.1 µM for Cc1c(CCCc2ccccc2)c(=O)oc2cc(OS(N)(=O)=O)ccc12 .
a: 87
